Parameter 'readout' = GI50; parameter 'system' = BaF3.
Experimental readout: GI50 (µM)

The cases that follow already have their GI50 on record.
{"Smiles string": "C=CC(=O)Nc1cc(Nc2ncc(Cl)c(Nc3ccccc3S(=O)(=O)C(C)C)n2)c(OC)cc1N1CCN(Cc2ccccc2)CC1", "Target desc": "BaF3", "GI50 (µM)": 4.1}
{"Smiles string": "C=CC(=O)Nc1cc(Nc2ncc(Cl)c(Nc3ccccc3S(=O)(=O)C(C)C)n2)c(OC)cc1N1CCCN(C)CC1", "Target desc": "BaF3", "GI50 (µM)": 1.2}
{"Smiles string": "C=CC(=O)Nc1cc(Nc2ncc(Cl)c(Nc3ccccc3S(=O)(=O)C(C)C)n2)c(OC)cc1N1CCC(N2CCN(C)CC2)CC1", "Target desc": "BaF3", "GI50 (µM)": 0.46}

[A] C=CC(=O)Nc1cc(Nc2ncc(Cl)c(Nc3ccccc3C(=O)NC)n2)c(OC)cc1N1CCN(C(C)=O)CC1
[B] C=CC(=O)Nc1cc(Nc2ncc(Cl)c(Nc3ccccc3S(=O)(=O)C(C)C)n2)c(OC)cc1N1CCNCC1
[C] C=CC(=O)Nc1cc(Nc2ncc(Cl)c(Nc3ccccc3S(=O)(=O)C(C)C)n2)c(OC)cc1N1CCN(C2CCCCC2)CC1
# input Rank descending by GI50. Response field: labels, in requested order.
# output A, B, C

----------
Measured GI50 on BaF3 follows.
Experimental readout: GI50 (nM)

Below, each entry is followed by its recorded GI50 result.
{"Smiles string": "C=CC(=O)Nc1cc(Nc2ncc(Cl)c(Nc3ccccc3C(=O)NC)n2)c(OC)cc1N(C)CCN(C)C", "Unit label": "nM", "GI50": 940}
{"Smiles string": "C=CC(=O)Nc1cc(Nc2ncc(Br)c(Nc3ccccc3S(=O)(=O)C(C)C)n2)c(OC)cc1N1CCN(CC)CC1", "Unit label": "nM", "GI50": 380}
{"Smiles string": "C=CC(=O)Nc1cc(Nc2ncc(F)c(Nc3ccccc3S(=O)(=O)C(C)C)n2)c(OC)cc1N1CCN(CC)CC1", "Unit label": "nM", "GI50": 3000}
{"Smiles string": "C=CC(=O)Nc1cc(Nc2ncc(Cl)c(Nc3cccc(C(F)(F)F)c3)n2)c(OC)cc1N1CCN(C)CC1", "Unit label": "nM", "GI50": 4300}

[I] C=CC(=O)Nc1cc(Nc2ncc(Cl)c(Nc3ccccc3C(=O)NC)n2)c(OC)cc1N1CCN(C2CCN(C)CC2)CC1
[II] CCC(=O)Nc1cc(Nc2ncc(Cl)c(Nc3ccccc3S(=O)(=O)C(C)C)n2)c(OC)cc1N1CCC(N2CCN(C)CC2)CC1
# input Min GI50? I | II Give the label of your selection.
# output II

----------
system: A431; assay: Growth of cancer cells (Cell Titer-Glo viability), A431; type: cell-based; details: Homo sapiens, A-431; A431 (wild-type EGFR), 72 hrs; read-out: GI50
Experimental readout: GI50 (µM)

[a] C=CC(=O)Nc1cc(Nc2ncc(Cl)c(Nc3ccccc3S(=O)(=O)C(C)C)n2)c(OC)cc1N1CCN[C@@H](C)C1
[b] COc1cc(N2CCC(N3CCN(C)CC3)CC2)ccc1Nc1ncc(Cl)c(Nc2ccccc2S(=O)(=O)C(C)C)n1 [TAE-684, reference compound]
[c] C=CC(=O)Nc1cc(Nc2ncc(Cl)c(Nc3ccccc3S(=O)(=O)C(C)C)n2)c(OC)cc1N1CCN(CCF)CC1
# input List the 3 compounds shown above, ordered by increasing GI50. Please respond with the labels ordered as the question requires.
# output a, c, b
(a: 0.1 µM, c: 0.32 µM, b: 1.3 µM)
